Ref: patent US8735322B2

# Test system: Setaria faberi (SETFA)
# assay_text: Example A pre-emergence herbicidal activity, glasshouse pot test
# Assay type: in vivo
# measurement_conditions: 480 h, rate 500 g/ha, evaluated 20 days later, 100=total damage to plant, 0=no damage to plant
reported_endpoint: pest or weed control at 500 g/ha (%)
Supply the numeric figure in %, leaving out any unit text.

// solved cases for pest or weed control at 500 g/ha follow
CCc1cc(CC)c(C2=C(O)CC(CC3CCOCC3)CC2=O)c(CC)c1 (stereo not shown) [Compound A-19] :: 100
CCc1cc(C)cc(CC)c1C1=C(O)CC(CC2CCSCC2)CC1=O (stereo not shown) [Compound A-14] :: 100
CCc1cc(C)cc(CC)c1C1=C(O)CC(CC2CCOC2)CC1=O (stereo not shown) [Compound A-3] :: 100
CCc1cc(C)cc(CC)c1C1=C(O)CC(CC2CCOCC2)CC1=O (stereo not shown) [Compound A-5] :: 100
CCc1cc(C)cc(CC)c1C1=C(O)CC(C(C)C2CCOC2)CC1=O (stereo not shown) [Compound A-18] :: 100

Lab note: Cc1ccc(-c2ccc(Cl)cc2)cc1C1=C(O)CC(CC2CCOC2)CC1=O (stereo not shown) [Compound A-2] gave pest or weed control at 500 g/ha of 60

Noted for Cc1ccc(-c2ccc(Cl)cc2)cc1C1=C(O)CC(C(C)C2CCOCC2)CC1=O (stereo not shown) [Compound A-15] : its pest or weed control at 500 g/ha reads 20
